tested on: SF-295 CNS; assay: NCI tumour cell line growth inhibition, 48 h
readoutLabel: TGI

Hi, could you look up TGI for each item in my list?
1. CCCc1c(C(=O)OCC)[nH]c(C(=O)CCC(=O)c2[nH]c(C(=O)OCC)c(CCC)c2C(=O)OCC)c1C(=O)OCC
2. O=S(=O)(Nc1ccccn1)c1ccc(N=Nc2ccc(O)c3ncccc23)cc1
3. COc1ccccc1NC(=O)C(CC(C(=O)Nc1ccccc1OC)/C(C)=N/NC(=O)c1ccccc1O)/C(C)=N/NC(=O)c1ccccc1O (stereo unspecified)
4. Cn1c(=O)c2c(nc(NCCNc3nc4c(c(=O)n(C)c(=O)n4C)n3C)n2C)n(C)c1=O
5. COc1cccc(Nc2nc(N)nc(N)c2N=O)c1
6. Nc1ncnc2c1ncn2C1OC(COC2C(CO)OC(OC(C(=O)O)C(O)C(OP(=O)(O)O)C(O)C(=O)O)C(O)C2O)C(O)C1O (stereo unspecified)

result:
1: > 100 µM; 2: 4.86 µM; 3: > 100 µM; 4: > 100 µM; 5: 76.6 µM; 6: > 100 µM

====

Record form. Attribute: TGI. Fill in for each entry.
tested on: NCI-H460 lung; experiment: NCI tumour cell line growth inhibition, 48 h

>  <compound>
CCN(CC)CC[n+]1cc2cc(OC)c(OC)cc2c2ccc3cc4c(cc3c21)OCO4

>  <TGI>
1.04 µM

$$$$
>  <compound>
CCOC(=O)N1C=CC(=C2C(=C3C=CN(C(=O)OCC)C=C3)C(=C3C=CN(C(=O)OCC)C=C3)C2=C2C=CN(C(=O)OCC)C=C2)C=C1

>  <TGI>
> 100 µM

$$$$
>  <compound>
O=c1c2cc(S(=O)(=O)Nc3c(Cl)cccc3Cl)ccc2ncn1NS(=O)(=O)c1ccc2ccccc2c1

>  <TGI>
> 62.5 µM

$$$$
>  <compound>
COc1cc(N2CCC(N3CCN(C)CC3)CC2)ccc1Nc1ncc(Cl)c(Nc2ccccc2S(=O)(=O)C(C)C)n1

>  <TGI>
5.11 µM

$$$$
>  <compound>
Cc1ccc(NC(=O)CC2C(=O)Nc3ccccc3S2=O)c(C)c1 (configuration not stated)

>  <TGI>
> 64.3 µM

$$$$
>  <compound>
COc1ccc(C(SCC(N)C(=O)O)(c2ccc(OC)cc2)c2ccc(OC)cc2)cc1 (configuration not stated)

>  <TGI>
17.3 µM

$$$$
>  <compound>
CCOCCOC[C@H]1CCCN(c2ccnc3sc(C(N)=O)c(N)c23)C1

>  <TGI>
> 100 µM

$$$$
>  <compound>
CC[CH2][Sn]([CH2]CC)([O]C(=O)Cc1ccc(F)cc1)[O][Sn]([CH2]CC)([CH2]CC)[O]C(=O)Cc1ccc(F)cc1

>  <TGI>
2.7 µM

$$$$

Parameters: items (list). Returns: TGI for each item.
1. O=C(N/N=C(\c1nc2ccc(Cl)cc2[nH]c1=O)C(O)c1ccccc1Cl)c1ccncc1 (configuration not stated)
2. CC12C(=O)OC(=O)C1(C)C1C=CC2O1 (configuration not stated)
3. O=C(c1ccccc1)C1C[C@H]2CO[C@H](c3ccccc3)N2C1=O (some centres not stated)
4. COc1ccc(-n2sc3ncc([N+](=O)[O-])cc3c2=O)cc1

result:
1: > 100 µM; 2: > 100 µM; 3: > 100 µM; 4: > 100 µM

Taken from PubChem BioAssay (NCI).
